tested on: Human immunodeficiency virus 1; assay: Antiviral activity against HIV1 NL4-3 in human MT4 cells assessed as inhibition of virus-induced cytopathogenicity by MTT assay; assay type: functional, organism-based; conditions: Human immunodeficiency virus 1, NL4-3, MT4
Please assign Not fulfilled whenever EC50 is at or above 20 nM, and Fulfilled whenever it is below.

Query string: Does the reported EC50 of Cc1c(Cc2c(F)cccc2F)nc(SCC(=O)c2ccc(F)cc2)[nH]c1=O stay below 20 nM?
Result string: Not fulfilled

Query string: Does the reported EC50 of COc1ccc(C(=O)CSc2nc(Cc3c(Cl)cccc3Cl)cc(=O)[nH]2)cc1 stay below 20 nM?
Result string: Not fulfilled

Query string: Does the reported EC50 of Cc1c(Cc2c(F)cccc2F)nc(SCc2ccccn2)[nH]c1=O stay below 20 nM?
Result string: Not fulfilled

Query string: Does the reported EC50 of CCc1c(Cc2c(F)cccc2F)nc(SCC(=O)c2ccc(F)cc2)[nH]c1=O stay below 20 nM?
Result string: Fulfilled

Query string: Does the reported EC50 of Cc1c(Cc2c(F)cccc2F)nc(SCc2ccc([N+](=O)[O-])cc2)[nH]c1=O stay below 20 nM?
Result string: Not fulfilled

Query string: Does the reported EC50 of CCC(C)c1c(Cc2c(F)cccc2Cl)nc(SCC(=O)c2ccc(F)cc2)[nH]c1=O (stereo unspecified) stay below 20 nM?
Result string: Fulfilled
